assay: physchem
Description: Dissociation constant, pKa of the compound
reported property: pKa

In: Please give the measured pKa for this molecule: CCN(CC)CCOC(=O)c1ccc(N)cc1 [PROCAINE]
Out: 9

In: Please give the measured pKa for this molecule: CC([C@H](O)c1ccccc1)N(C)C (stereo not given in full) [METHYLEPHEDRINE]
Out: 9

In: Please give the measured pKa for this molecule: CN(C)Cc1ccccc1
Out: 9.02

In: Please give the measured pKa for this molecule: NCC(O)c1ccc(O)cc1 (stereo not given) [OCTOPAMINE]
Out: 8.81

In: Please give the measured pKa for this molecule: C1COC(NC(C2CC2)C2CC2)=N1 [RILMENIDINE]
Out: 9.22
